# System: Haemophilus influenzae
# PROTOCOL: Antibacterial activity against Haemophilus influenzae ATCC 51907 with GyrB T169I mutation after 18 to 20 hrs
# Assay type: functional
A collection of compounds and their measured MIC
The reply should contain only the number, in µg/mL.

>>> print(df.to_string())
                            compound_smiles  units_symbol  quantitative_readout
0  O=C(O)c1cn(C2CC2)c2cc(N3CCNCC3)c(F)cc2c1=O         µg/mL                 0.004

Shift focus to the following entry.
Prompt: Given the entry CO[C@@H]1[C@@H](OC(N)=O)[C@@H](O)[C@H](Oc2ccc3c(O)c(NC(=O)c4ccc(O)c(CC=C(C)C)c4)c(=O)oc3c2C)OC1(C)C , report its measured MIC.
Completion: 0.25

###

# Lookup of reported MIC keyed by entry
# Tested on: Staphylococcus aureus
# PROTOCOL: Antibacterial activity against Staphylococcus aureus ATCC 29213 with GyrB R144I mutation without plasmid
# Assay type: functional

Use these answered entries as a reference point.
>>> print(df.to_string())
                            compound_smiles  endpoint      result
0  CCNC(=O)Nc1nc2cc(-c3cccnc3)cc(-c3ncccc3F)c2[nH]1       MIC  0.06 µg/mL
1  CO[C@@H]1[C@@H](OC(N)=O)[C@@H](O)[C@H](Oc2ccc3c(O)c(NC(=O)c4ccc(O)c(CC=C(C)C)c4)c(=O)oc3c2C)OC1(C)C       MIC     8 µg/mL
2  O=C(O)c1cn(C2CC2)c2cc(N3CCNCC3)c(F)cc2c1=O       MIC  0.25 µg/mL

Prompt: Quick check: MIC on Staphylococcus aureus, item CCNC(=O)Nc1nc2cc(-c3cnc(OC)nc3)c(OC)cc2[nH]1 ?
Completion: 2 µg/mL

###

# Tested on: Enterococcus faecalis
# PROTOCOL: Antibacterial activity against Enterococcus faecalis ATCC 29212 with GyrB T167I and ParE T169A mutation after 18 to 20 hrs
# Format: functional
ENDPOINT: MIC (µg/mL)
Enter your answer as a number in µg/mL; do not include the unit.

# annotated cases, reported MIC shown
                                   molecule  endpoint  quantitative_readout
0  O=C(O)c1cn(C2CC2)c2cc(N3CCNCC3)c(F)cc2c1=O [CIPROFLOXACIN]       MIC                   0.5
1  CO[C@@H]1[C@@H](OC(N)=O)[C@@H](O)[C@H](Oc2ccc3c(O)c(NC(=O)c4ccc(O)c(CC=C(C)C)c4)c(=O)oc3c2C)OC1(C)C [NOVOBIOCIN]       MIC                    16

Prompt: Entry CCNC(=O)Nc1nc2cc(-c3cccnc3)cc(-c3ncccc3F)c2[nH]1 : reported MIC = ?
Completion: 1

###

Here the recorded MIC is given for each entry.
# System: Enterococcus faecalis
# PROTOCOL: Antibacterial activity against Enterococcus faecalis ATCC 29212 with ParE T169A mutation after 18 to 20 hrs
# Type: functional
Response body: numeric value in µg/mL, unit text excluded.

These solved cases illustrate the format of a correct answer.
In [3]: df
Out[3]:
                                   molecule  endpoint  units_symbol  quantitative_readout
0  CCNC(=O)Nc1nc2cc(-c3cccnc3)cc(-c3ncccc3F)c2[nH]1       MIC         µg/mL                 0.064
1  CCNC(=O)Nc1nc2cc(-c3cnc(OC)nc3)c(OC)cc2[nH]1       MIC         µg/mL                     8
2  O=C(O)c1cn(C2CC2)c2cc(N3CCNCC3)c(F)cc2c1=O [CIPROFLOXACIN]       MIC         µg/mL                     1

Okay, now this molecule:
Prompt: Item: CO[C@@H]1[C@@H](OC(N)=O)[C@@H](O)[C@H](Oc2ccc3c(O)c(NC(=O)c4ccc(O)c(CC=C(C)C)c4)c(=O)oc3c2C)OC1(C)C [NOVOBIOCIN] Test system: Enterococcus faecalis Read-out: MIC Value: ?
Completion: 8
